Measured viability, T/C, listed per entry.
tested on: 171881-019-R-J1-PDC multicell spheroid viability; experiment: Anticancer human tumor 171881-019-R-J1-PDC patient-derived invasive breast carcinoma cell line growth inhibition [IpAb]; details: second compound 0.316 µM; first compound 0.0316 µM; hits give low values;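 further: spheroids exposed to the agents for seven days before readout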
readout-type: viability, T/C (%)

{"compound": "CC1(C)CCC(CN2CCN(c3ccc(C(=O)NS(=O)(=O)c4ccc(NCC5CCOCC5)c([N+](=O)[O-])c4)c(Oc4cnc5[nH]ccc5c4)c3)CC2)=C(c2ccc(Cl)cc2)C1 + CCN1CCN(Cc2ccc(Nc3ncc(F)c(-c4cc(F)c5nc(C)n(C(C)C)c5c4)n3)nc2)CC1", "readout-type": "viability, T/C", "measurement-units": "%", "readout-value": 120}
{"compound": "Cn1ncc(Cl)c1-c1cc(C(=O)NC(CN)Cc2cccc(F)c2)sc1Cl (stereo not given) + CCN1CCN(Cc2ccc(Nc3ncc(F)c(-c4cc(F)c5nc(C)n(C(C)C)c5c4)n3)nc2)CC1", "readout-type": "viability, T/C", "measurement-units": "%", "readout-value": 107}
{"compound": "C=CCn1c(=O)c2cnc(Nc3ccc(N4CCN(C)CC4)cc3)nc2n1-c1cccc(C(C)(C)O)n1 + CC(C)NCC(C(=O)N1CCN(c2ncnc3c2C(C)CC3O)CC1)c1ccc(Cl)cc1", "readout-type": "viability, T/C", "measurement-units": "%", "readout-value": 87.3}
{"compound": "Cn1ncc(Cl)c1-c1cc(C(=O)NC(CN)Cc2cccc(F)c2)sc1Cl (stereo not given) + CC(C)NCC(C(=O)N1CCN(c2ncnc3c2C(C)CC3O)CC1)c1ccc(Cl)cc1", "readout-type": "viability, T/C", "measurement-units": "%", "readout-value": 59.8}
{"compound": "CC1(C)CCC(CN2CCN(c3ccc(C(=O)NS(=O)(=O)c4ccc(NCC5CCOCC5)c([N+](=O)[O-])c4)c(Oc4cnc5[nH]ccc5c4)c3)CC2)=C(c2ccc(Cl)cc2)C1 + CC(C)NCC(C(=O)N1CCN(c2ncnc3c2C(C)CC3O)CC1)c1ccc(Cl)cc1", "readout-type": "viability, T/C", "measurement-units": "%", "readout-value": 103}
